TESTED_SYSTEM: GABA receptor complex (GRC)
ASSAY_EXPLANATION: [35S]TBPS binding in rat cerebral cortex P2 homogenate
CONDITION: concentration to inhibit 50% of control [35S]TBPS binding; 2 nM [35S]TBPS
EXPERIMENTAL_READOUT: IC50 (nM)
Give bare numbers, in nM.

Worked set:
C[n+]1ccc(SCC(=O)C2CCC3C4CCC5CC(O)CCC5(C)C4CCC23C)cc1 (stereo not drawn) [3α-Hydroxy-21-(4′-pyridyl)thio-5β-pregnan-20-one N-methyl io] : 263
C[C@]12CC[C@@H](O)C[C@H]1CC[C@@H]1[C@@H]2CC[C@]2(C)[C@@H](C(=O)COc3cccnc3)CC[C@@H]12 : 76
C[C@]12CC[C@@H](O)C[C@@H]1CC[C@@H]1[C@@H]2CC[C@]2(C)[C@@H](OCCO)CC[C@@H]12 : 534

Next compound, please.
Input line: May I ask what IC50 has been recorded for CCCO[C@H]1C[C@@]2(C)[C@@H](CC[C@@H]3[C@@H]2CC[C@]2(C)[C@@H](C(=O)CS(=O)(=O)CCCS(=O)(=O)[O-])CC[C@@H]32)C[C@@H]1O.[Na+] [sodium salt] ?
Output line: 1020
